System: OGA (Homo sapiens, UniProt O60502)
Construct: endogenous in cells; host or cells: HEK293 cells inducible for P301L mutant human Tau (isoform 2N4R)
Experiment summary: OGA cellular assay (ICC detection of O-GlcNAcylated proteins in HEK293 cells inducible for P301L mutant human Tau)
Assay type: cell-based
Settings: HEK293, HEK293 cells inducible for P301L mutant human Tau; maximum defined by Thiamet G at 200 uM
Method: HEK293 cells inducible for P301L mutant human Tau (isoform 2N4R) were established at Janssen. Thiamet-G was used for both plate validation (high control) and as reference compound (reference EC50 assay validation). OGA inhibition is evaluated through the immunocytochemical (ICC) detection of O-GlcNAcylated proteins by the use of a monoclonal antibody (CTD110.6; Cell Signaling, #9875) detecting O-GlcNAcylated residues as previously described (Dorfmueller et al. 2010 Chemistry & biology, 17:1250). […]
Test readout: Emax (%)

{"Molecule": "CC(c1nc2c(cc1F)OCCO2)N1CC[C@@H](Oc2ccc(C#N)nn2)C1 (some centres unmarked)", "Emax [%]": 43}
{"Molecule": "CC(c1cc2c(cc1F)OCCO2)N1CC[C@H](Cc2ncc(F)cc2F)C1 (single isomer, unassigned)", "Emax [%]": 35}
{"Molecule": "Cc1cc(O[C@@H]2CCN(C(C)c3nc4c(cc3F)OCCO4)C2)ccn1 (some centres unmarked)", "Emax [%]": 48}
{"Molecule": "Cc1cc(O[C@@H]2CCN(C(C)c3nc4c(cc3F)OCCO4)C2)cnc1C (some centres unmarked)", "Emax [%]": 45}
{"Molecule": "COc1cc(C[C@H]2CN([C@@H](C)c3ccc4c(n3)OCCO4)C[C@@H]2C)cc(C)n1 (stereo in doubt)", "Emax [%]": 47}

----------
System: recombinant human Meningioma Expressed Antigen 5 (MGEA5), also referred to as O-GlcNAcase (OGA) (Homo sapiens, UniProt O60502)
Construct: Full length OGA enzyme was purchased at OriGene (cat #TP322411); purchased OriGene TP322411
Experiment summary: OGA biochemical assay (inhibition of FM-GlcNAc hydrolysis, fluorescence)
Settings: FM-GlcNAc substrate, maximal effect, read-out: Enzymatic Emax (%)
Test readout: Emax (%)

{"Molecule": "COc1cc(O[C@@H]2CCN(C(C)c3ccc4c(n3)OCCO4)C2)cc(C)n1 (mixture of isomers)", "Unit abbreviation": "%", "Obs value": 84}
{"Molecule": "Cc1cc(O[C@@H]2CCN(C(C)c3nc4c(cc3F)CCO4)C2)cc(C)n1 (stereo partly shown) [Product 17]", "Unit abbreviation": "%", "Obs value": 101}
{"Molecule": "COc1cc(C[C@H]2CCN([C@H](C)c3cc4c(cc3F)NCCO4)C2)cc(C)n1 (racemic)", "Unit abbreviation": "%", "Obs value": 92}
{"Molecule": "Cc1cnc(C[C@H]2CCN(C(C)c3ccc4c(n3)OCCO4)C2)c(C)n1 (stereo partly shown)", "Unit abbreviation": "%", "Obs value": 101}

----------
System: recombinant human Meningioma Expressed Antigen 5 (MGEA5), also referred to as O-GlcNAcase (OGA) (Homo sapiens)
Construct: Full length OGA enzyme was purchased at OriGene (cat #TP322411); purchased OriGene TP322411
Experiment summary: OGA biochemical assay (inhibition of FM-GlcNAc hydrolysis, fluorescence)
Settings: FM-GlcNAc substrate, maximal effect, read-out: Enzymatic Emax (%)
Excerpt: The assay is based on the inhibition of the hydrolysis of fluorescein mono-β-D-N-Acetyl-Glucosamine (FM-GlcNAc) (Mariappa et al. 2015, Biochem J 470:255) by the recombinant human Meningioma Expressed Antigen 5 (MGEA5), also referred to as O-GlcNAcase (OGA). […] The fluorescence of the latter can be measured at excitation wavelength 485 nm and emission wavelength 538 nm. An increase in enzyme activity results in an increase in fluorescence signal. […]
Test readout: Emax (%)

Worked examples, 2 molecules total:
{"Molecule": "Cc1cc(O[C@@H]2CCN(C(C)c3nc4c(cc3F)OCCO4)C2)cnc1C (stereo partly shown)", "Obs value": 91}
{"Molecule": "Cc1cc(O[C@@H]2CCN(C(C)c3ccc4c(n3)OCCO4)C2)cc(C)n1 (mixture of isomers)", "Obs value": 99}

P: Cc1cc(CO[C@H]2CCN(C(C)c3ccc4c(n3)OCCO4)C2)cc(C)n1 (stereo partly shown)
Q: COc1cc(C[C@@H]2CN([C@@H](C)c3ccc4c(n3)OCCO4)C[C@H]2C)cc(C)n1 (stereo in doubt)
Which of the two gives a bigger number for Emax: P or Q ? Mark your answer with the label of the selected entry. P
(P: 70%, Q: 40%)
